Listed here are compounds together with their documented log10 EC50.
Experimental System: SERCA2a (Sus scrofa)
Construct: Cardiac SR vesicles were isolated from fresh porcine left ventricular tissue using differential centrifugation; from tissue; host or cells: porcine left ventricular tissue (cardiac SR vesicles)
Experiment Summary: NADH-linked Ca2+-ATPase activity assay in pig cardiac SR (pCSR) vesicles
Type: biochemical
Measurement Conditions: [Ca2+]MID (pCa6.2)
Measure: log10 EC50 (log10 of the value in µM)

| Compound | log10 EC50 |
| --- | --- |
| COC(=O)CSc1ncc(-c2ccc(F)cc2)c(C2CCCN(C(=O)c3cccc(F)c3)C2)n1 (stereo not drawn) | 0.56 |
| OCC1(Cc2ccccc2F)CCCN(Cc2cc3c(cc2Cl)OCO3)C1 (stereo not drawn) | 0.62 |
| CCc1ccc(S(=O)(=O)N2CCCC(C(=O)c3sccc3C)C2)cc1 (stereo not drawn) | 0.95 |
| COc1ccc(C(=O)C2CCCN(Cc3nc(-c4ccc(F)cc4)cs3)C2)c(OC)c1 (stereo not drawn) | 1.00 |
| O=C(c1ccc(-c2ccc(O)cc2)nc1)N1CCC(CCc2ccccc2)CC1 | 1.05 |
| Cc1nc(N2CCCCCCC2)ncc1C(C)NC(=O)c1ccnn1C (stereo not drawn) | -0.74 |

----------
Experimental System: SERCA2a (Sus scrofa, UniProt P11607)
Construct: Cardiac SR vesicles were isolated from fresh porcine left ventricular tissue using differential centrifugation; from tissue; host or cells: porcine left ventricular tissue (cardiac SR vesicles)
Sequence (P11607 1-997 isoform P11607-2): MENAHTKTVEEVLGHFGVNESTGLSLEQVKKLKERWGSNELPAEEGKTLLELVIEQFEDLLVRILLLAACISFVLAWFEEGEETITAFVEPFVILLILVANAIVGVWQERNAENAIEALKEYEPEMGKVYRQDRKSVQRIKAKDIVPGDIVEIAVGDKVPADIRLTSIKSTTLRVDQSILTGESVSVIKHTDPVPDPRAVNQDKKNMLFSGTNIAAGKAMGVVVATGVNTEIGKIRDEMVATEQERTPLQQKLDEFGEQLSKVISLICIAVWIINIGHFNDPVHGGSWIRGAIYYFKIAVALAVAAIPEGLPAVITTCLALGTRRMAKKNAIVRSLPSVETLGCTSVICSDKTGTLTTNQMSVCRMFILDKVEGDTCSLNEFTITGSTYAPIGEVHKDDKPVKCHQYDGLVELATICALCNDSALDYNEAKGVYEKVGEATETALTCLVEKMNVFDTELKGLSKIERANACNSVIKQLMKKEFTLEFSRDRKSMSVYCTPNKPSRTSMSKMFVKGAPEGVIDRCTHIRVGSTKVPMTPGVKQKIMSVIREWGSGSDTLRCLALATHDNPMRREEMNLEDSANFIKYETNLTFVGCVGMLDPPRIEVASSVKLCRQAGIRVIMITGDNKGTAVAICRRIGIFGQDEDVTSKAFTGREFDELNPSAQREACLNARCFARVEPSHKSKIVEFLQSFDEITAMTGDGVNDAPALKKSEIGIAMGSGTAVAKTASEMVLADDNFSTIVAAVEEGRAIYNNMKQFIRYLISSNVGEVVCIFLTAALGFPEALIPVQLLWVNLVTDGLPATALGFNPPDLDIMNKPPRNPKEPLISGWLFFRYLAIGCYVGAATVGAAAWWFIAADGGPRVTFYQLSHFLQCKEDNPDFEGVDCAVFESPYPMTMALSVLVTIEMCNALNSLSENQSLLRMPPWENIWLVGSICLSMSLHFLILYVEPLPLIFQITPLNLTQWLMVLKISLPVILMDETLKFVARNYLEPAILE
Experiment Summary: NADH-linked Ca2+-ATPase activity assay in pig cardiac SR (pCSR) vesicles
Assay type: biochemical
Measurement Conditions: [Ca2+]MAX (pCa5.4), concentration yielding 10% effect
API: label(entry) gives YES if the entry's Ca2+-ATPase C10 is strictly smaller than 7 µM; on equality or larger values it gives NO.

| Molecule | Assigned Class |
| --- | --- |
| Cc1nc(N2CCCCCCC2)ncc1C(C)NC(=O)c1ccnn1C (stereo not drawn) [Compound 18] | YES |
| CCc1cnc(N2CC[C@@H](c3ccc4ccccc4c3)[C@H](O)C2)nc1 (relative stereo) [Compound 16] | YES |
| CCC(C)(C)c1nnc(NC(=O)NCc2ccc(F)cc2F)s1 [Compound 15] | YES |
| CC1Cc2cc(CNC(=O)c3cc(C(C)C)nn3C)ccc2O1 (stereo not drawn) [Compound 9] | NO |
| COc1ccc(Cc2noc(CN3CCN(c4nc5ccccc5s4)CC3)n2)cc1OC [Compound 5] | NO |
| O=C(c1cc(COc2ccc3ncccc3c2)on1)N1CCC(c2ccncc2)CC1 [Compound 2] | NO |
| O=C(c1ccc(-c2ccc(O)cc2)nc1)N1CCC(CCc2ccccc2)CC1 [Compound 6] | NO |
| OCC1(CCOc2ccccc2)CCCN(Cc2cc3c(cc2Cl)OCO3)C1 (stereo not drawn) [Compound 13] | YES |

----------
Listed here are compounds together with their documented pEC50.
Experimental System: SERCA2a (Sus scrofa, UniProt P11607)
Construct: Cardiac SR vesicles were isolated from fresh porcine left ventricular tissue using differential centrifugation; from tissue; host or cells: porcine left ventricular tissue (cardiac SR vesicles)
Experiment Summary: Oxalate-supported Fluo-4 Ca2+-uptake (Ca2+-transport) assay in pig cardiac SR (pCSR) vesicles
Type: biochemical
Measurement Conditions: [Ca2+]MID (pCa6.2)
pEC50: −log10 of the molar value.
Measure: pEC50

| Compound | Measure | Observed Result |
| --- | --- | --- |
| OCC1(Cc2ccccc2F)CCCN(Cc2cc3c(cc2Cl)OCO3)C1 (centres unmarked) [Compound 12] | pEC50 | 5.49 |
| O=C(c1ccc(-c2ccc(O)cc2)nc1)N1CCC(CCc2ccccc2)CC1 [Compound 6] | pEC50 | 5.54 |
| OCC1(CCOc2ccccc2)CCCN(Cc2cc3c(cc2Cl)OCO3)C1 (centres unmarked) [Compound 13] | pEC50 | 5.19 |
| CCc1ccc(S(=O)(=O)N2CCCC(C(=O)c3sccc3C)C2)cc1 (centres unmarked) [Compound 14] | pEC50 | 5.41 |
| COC(=O)CSc1ncc(-c2ccc(F)cc2)c(C2CCCN(C(=O)c3cccc(F)c3)C2)n1 (centres unmarked) [Compound 11] | pEC50 | 5.55 |

Hey, just so you know, these numbers are from paper PMC10314922.
